Listing of entries alongside the reported EC50 (read off the curve).
target: T1, LILRB4 on human mononuclear leukemia cells THP-1 (human, UniProt Q8NHJ6 22-448); test: flow cytometry on THP-1 cells, PE goat anti-human IgG Fc, MFI
T1 construct: whole, on cells; The protein is endogenous to the cells; also called LILRB4 positive cells THP-1

humanized antibody RB4-G1-022 (antibody, human IgG1, kappa, V domains shown) VH: QVQLVQSGAEVKKPGASVKVSCKASGYTFTSYWMHWVRQAPGQGLEWIGEINPSNGRTNYNEKFKSRATLTVDKSTSTAYMELSSLRSEDTAVYYCARDRYDEGNAMDYWGQGTTVTVSS VL: DIQMTQSPSSLSASVGDRVTITCRASQDITNYLNWYQQKPGKAPKLLIYYTSRLHSGVPSRFSGSGSGTDYTFTISSLQPEDIATYYCQQGDTLPRTFGQGTRLEIKR    ~0.04 µg/mL

Given the entry humanized antibody RB4-G1-018 (antibody, human IgG1, kappa, V domains shown) VH: QVQLVQSGAEVKKPGASVKVSCKASGYTFTSYWMHWVRQAPGQGLEWIGEINPSNGRTNYNEKFKSRATLTVDKSTSTAYMELSSLRSEDTAVYYCARDRYDEGNAMDYWGQGTTVTVSS VL: DIQMTQSPSSLSASVGDRVTITCRASQDITNYLNWYQQKPGKAPKLLIYYTSRLHSGVPSRFSGSGSGTEYTLTISSLQPDDFATYYCQQGDTLPRTFGQGTRLEIKR , report its measured EC50 (read off the curve).
~0.03 µg/mL

Given the entry humanized antibody RB4-G1-020 (antibody, human IgG1, kappa, V domains shown) VH: QVQLVQSGAEVKKPGASVKVSCKASGYTFTSYWMHWVRQAPGQGLEWMGEINPSNGRTNYNEKFKSRVTMTRDTSTSTVYMELSSLRSEDTAVYYCARDRYDEGNAMDYWGQGTTVTVSS VL: DIQMTQSPSSLSASVGDRVTITCRASQDITNYLNWYQQKPGKAPKLLIYYTSRLHSGVPSRFSGSGSGTEYTLTISSLQPDDFATYYCQQGDTLPRTFGQGTRLEIKR , report its measured EC50 (read off the curve).
~0.03 µg/mL

Where these numbers come from: patent US20260250379A1
